This listing pairs binders with measured strep/HRP.
- tgt: T1, human CD70, recombinant, N-terminally biotinylated (residues 39-193) (human, UniProt P32970 39-193, N-terminal biotin)
- T1 construct: range 39-193; the same entry is used there; also called biotinylated human CD70; CD70 biotin
- T1 sequence (looked up): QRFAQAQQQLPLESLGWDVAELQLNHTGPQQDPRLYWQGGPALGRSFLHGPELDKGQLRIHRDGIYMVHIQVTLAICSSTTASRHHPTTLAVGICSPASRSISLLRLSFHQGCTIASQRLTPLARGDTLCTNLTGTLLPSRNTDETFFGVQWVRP
- methodDescription: CD27 blocking ELISA, 3 µM scFv, strep/HRP
// response body must contain only the number

Reference set, count: 3
56-TC7-VI-H08 (scFv, His-tagged) scFv: QMQLVQSGAEVKKPGASVKVSCKASGYTFTSYYMHWVRQAPGQGLEWMGIINPSGGSTSYAQKFQGRVTMTRDTSTSTAYMELRSLRSDDTAVYYCARGWETNDAFDIWGQGTMVTVSSGGSGGSGGSGGSQSVLTQPPSVSGAPGQKVTISCSGSNSNVGNHYLSWYQHLPGTAPRLLIFDNNKRPSGIPDRFSGSKSGASATLDITGLQTGDEADYFCGTWDSRLNVWVFGGGTKLTVL
1.44
51-TC7-VIII-G06 (scFv, His-tagged) scFv: QVQLLESGGGLVQPGRSLRLSCAASGFTFDDYAMHWVRQAPGKGLEWVSGITWNSGSIGYADSVKGRFTISRDNAKNSLYLQMNSLRAEDTAVYYCAREVAARPFYYYGMDVWGQGTTVTVSSGGSGGSGGSGGSQSVLTQPPSVSVAPGKTARITCGGNNIGSKSVHWYQQKPGQAPVLVVYDDSDRPSGIPERFSGSNSGNTATLTISGTQAMDEADYYCQAWDSSTVFGGGTKLTVL
1.46
57-TC7-VII-A03 (scFv, His-tagged) scFv: QVQLQQSGPGLVKASETLSLTCAVSGHSISSSNYWGWIRQPPGKGLEWIGSIYHSGTTYYNPSLKSRVTMSVDTSKNQFSLKLSSVTAADTAVYYCARHGSGDLGYLEYWGQGTLVTVSSGGSGGSGGSGGSSYELTQSPSVSVAPGKTARITCGGNNIGSKSVHWYQQKPGQAPVLVIYYDSDRPSGIPERFSGSNSGNTATLTISRVEAGDEADYYCQVWDSSSDHPVFGGGTKVTVL
1.49

Next up:
Data point: 50-TC7-III-A11 (scFv, His-tagged; also called 1985) scFv: QVQLVQSGAEVKRPGASVKVSCKASGYTFTSYYMHWVRQAPGQGLEWMGIINPSGGSTSYAQKFQGRVTMTRDTSTSTVYMELSSLRSEDTAVYYCAIEPGYCSGGSCYPDAFDIWGQGTTVTVSSGGSGGSGGSGGSQSVLTQPPSASGTPGQRVTISCSGSSSNIGSDYVYWYQRVPGTAPKLLIYRDNQRPSGVPDRFSGSKSGTSASLAISGLRSDDEADYYCAAWDDSLSGWVFGGGTKVTVL ; strep/HRP = 0.868
